# reported inhibition; entries follow
Target: Glutathione S-transferase omega-1 (Homo sapiens)
Assay: selectivity of GSTO1 blockers across lysate enzymes – cell lysate, MDA-MB-435 proteome, gel ABPP, endogenous enzyme, selectivity assay for GSTO1 inhibitor project, late-stage follow-up (AID 463102)
Settings: competitive gel ABPP, SE-Rh probe, GSTO1 inhibition, at 1 µM, stronger effect = higher value

Worked set:
compound: O=C(CCl)N1CCN(S(=O)(=O)c2ccc3ccccc3c2)CC1
measured-endpoint: inhibition
result: 100%
//
compound: O=C(CCl)N(CCCNC(=O)C(F)(F)F)c1ccc(F)cc1
measured-endpoint: inhibition
result: 94%
//
compound: COc1ccc(N(C(=O)CCl)C(C(=O)NC2CCCCC2)c2cccnc2)cc1 (stereo not drawn)
measured-endpoint: inhibition
result: 100%

Which inhibition value is on record for `CC(=O)NCCCN(C(=O)CCl)c1ccc([N+](=O)[O-])cc1` ?
62%

Look up inhibition for this compound: `COc1ccc(N(CCCNC(=O)C(F)(F)F)C(=O)CCl)cc1`
90%

Requested field: inhibition. Item: `C#CCCC(=O)NCCCN(C(=O)CCl)c1ccc([N+](=O)[O-])cc1`
100%

Fill in the blank: the reported inhibition of O=C(NC1CCCCC1)C(c1cccnc1)N(C(=O)CCl)c1cccc(Cl)c1 (stereo not drawn) is ____.
100%

Which measured inhibition value corresponds to `Cc1nn(-c2ccccc2)c(Cl)c1CN(C(=O)CCl)c1ccc(Cl)cc1` ?
93%
